Measured pIC50 values are reported for all entries that follow.
Molecular target: SHP2 (Homo sapiens (Human), UniProt Q06124)
Sequence (Q06124 whole entry): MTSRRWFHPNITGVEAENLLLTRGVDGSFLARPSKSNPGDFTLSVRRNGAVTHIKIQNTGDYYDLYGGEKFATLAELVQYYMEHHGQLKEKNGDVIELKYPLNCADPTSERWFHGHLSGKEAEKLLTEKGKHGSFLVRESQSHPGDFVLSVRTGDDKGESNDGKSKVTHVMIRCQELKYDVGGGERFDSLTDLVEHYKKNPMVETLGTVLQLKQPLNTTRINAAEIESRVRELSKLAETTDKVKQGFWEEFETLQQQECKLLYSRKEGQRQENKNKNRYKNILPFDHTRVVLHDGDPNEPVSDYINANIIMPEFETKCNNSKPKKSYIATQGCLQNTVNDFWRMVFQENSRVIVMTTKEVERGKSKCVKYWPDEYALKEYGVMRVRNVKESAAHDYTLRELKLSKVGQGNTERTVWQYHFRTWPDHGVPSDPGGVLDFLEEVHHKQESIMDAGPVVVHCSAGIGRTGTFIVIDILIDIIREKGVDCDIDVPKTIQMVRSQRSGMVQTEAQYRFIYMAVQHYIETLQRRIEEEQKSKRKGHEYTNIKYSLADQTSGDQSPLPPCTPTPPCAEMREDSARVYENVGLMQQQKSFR
Experiment: SHP2 allosteric inhibition experiment (DiFMUP fluorescence)
Assay type: biochemical
Details: 0.5 nM SHP2 activated with 0.5 μM peptide IRS1_pY1172(dPEG8)pY1222; substrate DiFMUP; 25° C.; read-out: IC50 values of compounds inhibiting SHP2
pIC50: −log10 of the molar value.
measurement-name: pIC50

| smiles-code | experimental-value |
| --- | --- |
| C[C@@H]1OCC2(CCN(c3cnc(Sc4cccc(-c5cnccn5)c4Cl)c(N)n3)CC2)[C@@H]1N | 8.29 |
| C[C@@H]1OCC2(CCN(c3cnc(Sc4cccc(-c5ncccn5)c4Cl)cn3)CC2)[C@@H]1N | 8.18 |
| C[C@@H]1OCC2(CCN(c3cnc(Sc4cccc(-c5nc6ccccc6o5)c4Cl)cn3)CC2)[C@@H]1N | 8.03 |
| C[C@@H]1OCC2(CCN(c3cnc(Sc4cccc(-c5cnc6ccnn6c5)c4Cl)cn3)CC2)[C@@H]1N | 8.18 |
| C[C@@H]1OCC2(CCN(c3cnc(Sc4cccc(-c5ccn(C)n5)c4Cl)cn3)CC2)[C@@H]1N | 8.67 |
| C[C@@H]1OCC2(CCN(c3cnc(Sc4cccc(N5CCCC5)c4Cl)cn3)CC2)[C@@H]1N | 8.10 |
